The measured values listed here are drawn from patent US11261190B2.

experiment: PK test on SD rats; assay type: in vivo; conditions: po, 5 mg/kg
Property Name: F (%)
API: value field is a number in %; no unit string.

{"Compound": "COC(=O)C1=C(CN2CCN3C(=O)N(c4ccc(C(C)CC(=O)O)cc4)C[C@@H]3C2)NC(c2nccs2)=N[C@H]1c1ccc(F)cc1Cl (stereo partly shown) [Example 19]", "Unit Text": "%", "Reported": 73.4}
{"Compound": "COC(=O)C1=C(CN2CCN3C(=O)N(c4ccc(CCC(=O)O)cc4)C[C@@H]3C2)NC(c2nccs2)=N[C@H]1c1ccc(F)cc1Cl [Example 13]", "Unit Text": "%", "Reported": 31.2}
{"Compound": "COC(=O)C1=C(CN2CCN3C(=O)N(c4ccc(CC(C)(C)C(=O)O)cc4)C[C@@H]3C2)NC(c2nccs2)=N[C@H]1c1ccc(F)cc1Cl [Example 17]", "Unit Text": "%", "Reported": 114.1}

Next item in the queue.
query: Entry under review: COC(=O)C1=C(CN2CCN3C(=O)N(c4ccc(CC(=O)O)cc4)C[C@@H]3C2)NC(c2nccs2)=N[C@H]1c1ccc(F)cc1Cl [Example 14] . Reported F?
result: 44

###

experiment: PK test on SD rats; assay type: in vivo; details: male, rat, plasma, po, 5 mg/kg
Property: AUC(0-inf); scope: individual compounds
API: value field is a number in ng·h/mL; no unit string.

query: Entry under review: COC(=O)C1=C(CN2CCN3C(=O)N(c4ccc(CC(C)(C)C(=O)O)cc4)C[C@@H]3C2)NC(c2nccs2)=N[C@H]1c1ccc(F)cc1Cl . Reported AUC(0-inf)?
result: 5580

###

test: Cytotoxicity in HepG2.2.15 cells (CellTiter Glo); type: cell-based; conditions: human, highest concentration 150 μM
Property: CC50 at 4 days; scope: individual molecules

Consider the reported CC50 at 4 days for these molecules:
{"Molecule": "COC(=O)C1=C(CN2CCN3C(=O)N(c4ccc(C(C)CC(=O)O)cc4)C[C@@H]3C2)NC(c2nccs2)=N[C@H]1c1ccc(F)cc1Cl (stereo partly drawn)", "Property Name": "CC50 at 4 days", "Reported": "> 150 µM"}
{"Molecule": "COC(=O)C1=C(CN2CCN3C(=O)N(c4ccc(C(C)(C)C(=O)O)cc4F)C[C@@H]3C2)NC(c2nccs2)=N[C@H]1c1ccc(F)cc1Cl", "Property Name": "CC50 at 4 days", "Reported": "> 150 µM"}

Next item in the queue.
query: Entry under review: COC(=O)C1=C(CN2CCN3C(=O)N(c4ccc(C(C)=O)cc4F)C[C@@H]3C2)NC(c2nccs2)=N[C@H]1c1ccc(F)cc1Cl . Reported CC50 at 4 days?
result: > 150 µM

###

test: PK test on SD rats; format: in vivo; conditions: male, rat, plasma, iv, 1 mg/kg
Property Name: AUC(0-t) (ng·h/mL)
API: value field is a number in ng·h/mL; no unit string.

Consider the reported AUC(0-t) for these compounds:
{"Compound": "COC(=O)C1=C(CN2CCN3C(=O)N(c4ccc(CC(=O)O)cc4)C[C@@H]3C2)NC(c2nccs2)=N[C@H]1c1ccc(F)cc1Cl", "Property Name": "AUC(0-t)", "Reported": 680}
{"Compound": "COC(=O)C1=C(CN2CCN3C(=O)N(c4ccc(C(C)CC(=O)O)cc4)C[C@@H]3C2)NC(c2nccs2)=N[C@H]1c1ccc(F)cc1Cl (stereo partly shown)", "Property Name": "AUC(0-t)", "Reported": 5520}
{"Compound": "COC(=O)C1=C(CN2CCN3C(=O)N(c4ccc(CC(C)(C)C(=O)O)cc4)C[C@@H]3C2)NC(c2nccs2)=N[C@H]1c1ccc(F)cc1Cl", "Property Name": "AUC(0-t)", "Reported": 977}

Next item in the queue.
query: Entry under review: COC(=O)C1=C(CN2CCN3C(=O)N(c4ccc(CCC(=O)O)cc4)C[C@@H]3C2)NC(c2nccs2)=N[C@H]1c1ccc(F)cc1Cl . Reported AUC(0-t)?
result: 1320

###

experiment: PK test on SD rats; assay type: in vivo; details: male, rat, plasma, po, 5 mg/kg
Property Name: Tmax (min)
API: value field is a number in min; no unit string.

{"Compound": "COC(=O)C1=C(CN2CCN3C(=O)N(c4ccc(CCC(=O)O)cc4)C[C@@H]3C2)NC(c2nccs2)=N[C@H]1c1ccc(F)cc1Cl [Example 13]", "Unit Text": "min", "Tmax": 30}

query: Entry under review: COC(=O)C1=C(CN2CCN3C(=O)N(c4ccc(CC(=O)O)cc4)C[C@@H]3C2)NC(c2nccs2)=N[C@H]1c1ccc(F)cc1Cl [Example 14] . Reported Tmax?
result: 30

query: Entry under review: COC(=O)C1=C(CN2CCN3C(=O)N(c4ccc(C(C)CC(=O)O)cc4)C[C@@H]3C2)NC(c2nccs2)=N[C@H]1c1ccc(F)cc1Cl (stereo partly shown) [Example 19] . Reported Tmax?
result: 30

query: Entry under review: COC(=O)C1=C(CN2CCN3C(=O)N(c4ccc(CC(C)(C)C(=O)O)cc4)C[C@@H]3C2)NC(c2nccs2)=N[C@H]1c1ccc(F)cc1Cl [Example 17] . Reported Tmax?
result: 60

###

assay: PK test on SD rats; type: in vivo; settings: male, rat, plasma, iv, 1 mg/kg
Property Name: AUC(0-inf)
The reply should read as a number followed by its unit.

{"Molecule": "COC(=O)C1=C(CN2CCN3C(=O)N(c4ccc(CC(C)(C)C(=O)O)cc4)C[C@@H]3C2)NC(c2nccs2)=N[C@H]1c1ccc(F)cc1Cl", "AUC(0-inf)": "979 ng·h/mL"}

query: Entry under review: COC(=O)C1=C(CN2CCN3C(=O)N(c4ccc(CCC(=O)O)cc4)C[C@@H]3C2)NC(c2nccs2)=N[C@H]1c1ccc(F)cc1Cl . Reported AUC(0-inf)?
result: 1320 ng·h/mL

query: Entry under review: COC(=O)C1=C(CN2CCN3C(=O)N(c4ccc(C(C)CC(=O)O)cc4)C[C@@H]3C2)NC(c2nccs2)=N[C@H]1c1ccc(F)cc1Cl (stereo partly shown) . Reported AUC(0-inf)?
result: 5520 ng·h/mL

query: Entry under review: COC(=O)C1=C(CN2CCN3C(=O)N(c4ccc(CC(=O)O)cc4)C[C@@H]3C2)NC(c2nccs2)=N[C@H]1c1ccc(F)cc1Cl . Reported AUC(0-inf)?
result: 684 ng·h/mL

###

experiment: PK test on SD rats; type: in vivo; details: male, rat, plasma, po, 5 mg/kg
Property: AUC(0-t); scope: individual compounds
The reply should read as a number followed by its unit.

{"Compound": "COC(=O)C1=C(CN2CCN3C(=O)N(c4ccc(CCC(=O)O)cc4)C[C@@H]3C2)NC(c2nccs2)=N[C@H]1c1ccc(F)cc1Cl", "AUC(0-t)": "3.05 µg·h/mL"}
{"Compound": "COC(=O)C1=C(CN2CCN3C(=O)N(c4ccc(CC(=O)O)cc4)C[C@@H]3C2)NC(c2nccs2)=N[C@H]1c1ccc(F)cc1Cl", "AUC(0-t)": "2.25 µg·h/mL"}
{"Compound": "COC(=O)C1=C(CN2CCN3C(=O)N(c4ccc(C(C)CC(=O)O)cc4)C[C@@H]3C2)NC(c2nccs2)=N[C@H]1c1ccc(F)cc1Cl (stereo partly shown)", "AUC(0-t)": "20.3 µg·h/mL"}

Next item in the queue.
query: Entry under review: COC(=O)C1=C(CN2CCN3C(=O)N(c4ccc(CC(C)(C)C(=O)O)cc4)C[C@@H]3C2)NC(c2nccs2)=N[C@H]1c1ccc(F)cc1Cl . Reported AUC(0-t)?
result: 4.71 µg·h/mL

###

test system: HBV; assay: Anti HBV activity in vitro, viral DNA from HepG2.2.15 cells quantified by qPCR; format: cell-based; conditions: qPCR of viral DNA in supernatant, read-out: EC50 against HBV replication
Property Name: EC50 (nM)
API: value field is a number in nM; no unit string.

query: Entry under review: CCOC(=O)C1=C(CN2CCN3C(=O)N(c4nc(CCC(=O)O)cs4)C[C@@H]3C2)NC(c2nccs2)=N[C@H]1c1ccc(F)cc1Br [Example 30] . Reported EC50?
result: 12

###

Assay: PK test on SD rats
Format: in vivo
Settings: male, rat, plasma, po, 5 mg/kg
Experimental: The PK test method of the compound in vivo of SD rats (purchased from Hunan slack Jing Da laboratory animal Co., Ltd, weight: […] male, ages of 2-3 months, 3 per oral group, 3 per intravenous injection group): […] Blood samples were taken at 0.083, 0.25, 0.5, 1, 2, 5, 7 and 24 hours from vein after the administration, and collected in anticoagulation tube with EDTA-K2. […] Pharmacokinetic parameters were calculated using a noncompartmental method by WinNonLin 6.3 software.
Property Name: AUC(0-inf) (ng·h/mL)
API: value field is a number in ng·h/mL; no unit string.

query: Entry under review: COC(=O)C1=C(CN2CCN3C(=O)N(c4ccc(CC(=O)O)cc4)C[C@@H]3C2)NC(c2nccs2)=N[C@H]1c1ccc(F)cc1Cl . Reported AUC(0-inf)?
result: 2250

query: Entry under review: COC(=O)C1=C(CN2CCN3C(=O)N(c4ccc(C(C)CC(=O)O)cc4)C[C@@H]3C2)NC(c2nccs2)=N[C@H]1c1ccc(F)cc1Cl (stereo partly drawn) . Reported AUC(0-inf)?
result: 20300

query: Entry under review: COC(=O)C1=C(CN2CCN3C(=O)N(c4ccc(CCC(=O)O)cc4)C[C@@H]3C2)NC(c2nccs2)=N[C@H]1c1ccc(F)cc1Cl . Reported AUC(0-inf)?
result: 3080
